Listed below: HDL cholesterol levels values for each entry.
TEST NAME: Plasma cholesterol and triglycerides in C57BL/6 mice (Olympus AU400e)
Format: in vivo, mouse
TEST PARAMETERS: Week 3, 50 mg/kg/week
Oligonucleotides are written 5' to 3', each unit as a sugar letter and its base; * is a phosphorothioate linkage, no mark a phosphodiester; rarer units and linkages stand in square brackets, end groups in braces. Plain capitals give the bases only. e = 2'-O-(2-methoxyethyl) (MOE); [5mC] = 5-methylcytosine; d = 2'-deoxy (DNA)
Respond numerically; units are mg/dL and should not be typed.

Examples from the recorded data:
• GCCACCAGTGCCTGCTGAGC (antisense eG*e[5mC]*e[5mC]*eA*e[5mC]*d[5mC]*dA*dG*dT*dG*d[5mC]*d[5mC]*dT*dG*d[5mC]*eT*eG*eA*eG*e[5mC]) [ISIS 447143] = 56
• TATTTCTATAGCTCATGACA (antisense eT*eA*eT*eT*eT*d[5mC]*dT*dA*dT*dA*dG*d[5mC]*dT*d[5mC]*dA*eT*eG*eA*e[5mC]*eA) [ISIS 447144] = 53
• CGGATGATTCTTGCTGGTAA (antisense e[5mC]*eG*eG*eA*eT*dG*dA*dT*dT*d[5mC]*dT*dT*dG*d[5mC]*dT*eG*eG*eT*eA*eA) [ISIS 447114] = 47

Exercise: Could you tell me which HDL cholesterol levels is on file for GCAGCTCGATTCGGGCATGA (antisense eG*e[5mC]*eA*eG*e[5mC]*dT*d[5mC]*dG*dA*dT*dT*d[5mC]*dG*dG*dG*e[5mC]*eA*eT*eG*eA) [ISIS 447118] ?
Key: 50

* * *

Test system: murine TTC39C mRNA
TEST NAME: Dose-dependent antisense inhibition of murine TTC39C in mouse primary hepatocytes
Assay type: cell-based
TEST PARAMETERS: 4000.0 nM, electroporation, ~16 h
Oligonucleotides are written 5' to 3', each unit as a sugar letter and its base; * is a phosphorothioate linkage, no mark a phosphodiester; rarer units and linkages stand in square brackets, end groups in braces. Plain capitals give the bases only. e = 2'-O-(2-methoxyethyl) (MOE); [5mC] = 5-methylcytosine; d = 2'-deoxy (DNA)
Listed below: percent inhibition of TTC39C mRNA values for each entry.
Respond numerically; units are % and should not be typed.

Examples from the recorded data:
- ISIS 474617: 5-10-5 MOE gapmer antisense oligonucleotide targeting murine TTC39C (antisense eA*eG*eT*eT*e[5mC]*d[5mC]*d[5mC]*dT*dT*dA*dG*dG*dG*dA*dG*eG*e[5mC]*e[5mC]*eA*eG): 86
- ISIS 474516: 5-10-5 MOE gapmer antisense oligonucleotide targeting murine TTC39C (antisense eT*eT*eA*eG*eT*dG*dG*dA*d[5mC]*dT*dA*dT*dG*dA*dT*eT*eT*e[5mC]*eT*eG): 88
- ISIS 474662: 5-10-5 MOE gapmer antisense oligonucleotide targeting murine TTC39C (antisense eG*eG*eA*eT*eT*dT*d[5mC]*d[5mC]*dG*dG*dG*d[5mC]*dA*dT*d[5mC]*eA*eA*e[5mC]*e[5mC]*eT): 88

Exercise: Could you tell me which percent inhibition of TTC39C mRNA is on file for ISIS 474589: 5-10-5 MOE gapmer antisense oligonucleotide targeting murine TTC39C (antisense eT*e[5mC]*e[5mC]*eG*eA*dA*dA*dT*d[5mC]*dG*d[5mC]*dT*d[5mC]*dA*dG*e[5mC]*e[5mC]*eT*eG*e[5mC]) ?
Key: 99

Exercise: // query: ISIS 474523: 5-10-5 MOE gapmer antisense oligonucleotide targeting murine TTC39C (antisense eG*eG*eT*e[5mC]*eA*d[5mC]*d[5mC]*d[5mC]*d[5mC]*dT*dT*d[5mC]*dG*dG*d[5mC]*e[5mC]*eA*e[5mC]*eA*eA)
Key: 96

Exercise: // query: ISIS 474517: 5-10-5 MOE gapmer antisense oligonucleotide targeting murine TTC39C (antisense e[5mC]*e[5mC]*eT*e[5mC]*eG*dA*dA*dT*dG*dT*d[5mC]*dA*dT*d[5mC]*dA*eT*eG*eG*e[5mC]*eG)
Key: 95

Exercise: // query: ISIS 474515: 5-10-5 MOE gapmer antisense oligonucleotide targeting murine TTC39C (antisense eT*e[5mC]*e[5mC]*e[5mC]*eT*dG*dA*dA*dG*d[5mC]*d[5mC]*dG*dT*dT*dG*eT*eT*eG*eA*eG)
Key: 91

Exercise: // query: ISIS 474600: 5-10-5 MOE gapmer antisense oligonucleotide targeting murine TTC39C (antisense e[5mC]*e[5mC]*eA*eA*eG*dG*dG*d[5mC]*dT*d[5mC]*dT*dT*d[5mC]*d[5mC]*dG*eT*e[5mC]*eA*eG*e[5mC])
Key: 86
